Target: UniProt:P33032
Sequence (P33032 whole entry): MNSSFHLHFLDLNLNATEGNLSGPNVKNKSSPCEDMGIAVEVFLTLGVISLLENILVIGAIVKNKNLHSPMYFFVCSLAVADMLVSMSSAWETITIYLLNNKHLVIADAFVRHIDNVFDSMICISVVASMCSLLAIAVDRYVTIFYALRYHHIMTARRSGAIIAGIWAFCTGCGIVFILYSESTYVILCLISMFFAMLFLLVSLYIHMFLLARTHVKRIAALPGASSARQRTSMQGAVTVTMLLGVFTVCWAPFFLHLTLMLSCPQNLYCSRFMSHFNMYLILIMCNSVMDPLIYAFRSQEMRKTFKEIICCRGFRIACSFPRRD
Starred links: 1 amine or outer side, 2 acyl side, 3 side chain; linkers in the order of their positions; H or OH if unused. Positions of bridges follow the written chain, without caps; N, C: chain ends. Non-standard residues stand in square brackets, D forms with d. Residues, ends and D or L forms follow the SMILES beside them. ξ: configuration not given here. 2Nal = N[C@@H](Cc1ccc2ccccc2c1)C(=O)O; Suc = O=C(CCC(=O)[*:2])[*:1]; ξE = NC(CCC(=O)O)C(=O)O; ξK = NCCCCC(N)C(=O)O; GABA = NCCCC(=O)O
measure name: IC50

Jot down IC50 (UniProt:P33032) of N=C(N)NCCC[C@@H]1NC(=O)[C@@H](Cc2ccccc2)NC(=O)[C@H](Cc2c[nH]cn2)NC(=O)CCCNC(=O)CCC(C(N)=O)NC(=O)[C@H](Cc2c[nH]c3ccccc23)NC1=O (stereo partly drawn) [Example 7] ([GABA]H[dF]RW[ξE]-NH2; lactam N-6) .
> 5 µM

Jot down IC50 (UniProt:P33032) of N=C(N)NCCC[C@@H]1NC(=O)[C@@H](Cc2ccccc2)NC(=O)[C@H](Cc2c[nH]cn2)NC(=O)CCC(=O)NCCCCC(C(N)=O)NC(=O)[C@H](Cc2ccc3ccccc3c2)NC1=O (stereo partly drawn) [Example 5] (H[dF]R[2Nal][ξK]-NH2; linker N-5 via Suc) .
> 20 µM

Jot down IC50 (UniProt:P33032) of N=C(N)NCCC[C@@H]1NC(=O)[C@@H](Cc2ccccc2)NC(=O)[C@H](Cc2c[nH]cn2)NC(=O)CNC(=O)CCC(C(N)=O)NC(=O)[C@H](Cc2c[nH]c3ccccc23)NC1=O (stereo partly drawn) [Example 9] (GH[dF]RW[ξE]-NH2; lactam N-6) .
> 1 µM
